Reported concentration at 5 min values are given for each entry in this list.
Assay overview: Drug uptake in rat at 0.2 mg/kg, iv at 5 mins
Assay type: ADME, organism-based
Parameters: dose 0.2 mg/kg, route intravenous
Measurement parameters: in vivo, read-out: Drug uptake

The following compounds have reported results that may help.
> print(dat)
                            molecule.smiles  recorded.measurement
1  O=C(Nc1ccc(OC(F)(F)F)cc1)N1CCOC2(CCN(C(=O)c3ccccc3F)CC2)C1              71 ng/mL
2  Cc1cc(C(=O)N2CCC3(CC2)CN(C(=O)Nc2ccc(OC(F)(F)F)cc2)CCO3)no1            77.7 ng/mL

The record that follows has no concentration at 5 min shown yet.
Entry under test: Cc1cnc(C(=O)N2CCC3(CC2)CN(C(=O)Nc2ccc(OC(F)(F)F)cc2)CCO3)cn1 . Its concentration at 5 min was 134 ng/mL

###

Assay overview: AUC (0 to infinity) in rat at 0.2 mg/kg, iv
Type: ADME, organism-based
Set-up: time infinity, dose 0.2 mg/kg, route intravenous
Measurement parameters: plasma
Reported AUC(0-inf) values are given for each entry in this list.
# number then unit; no other words

> print(dat)
                            molecule.smiles  recorded.measurement
1  Cc1cc(C(=O)N2CCC3(CC2)CN(C(=O)Nc2ccc(OC(F)(F)F)cc2)CCO3)no1          90.2 ng·h/mL
2  O=C(Nc1ccc(OC(F)(F)F)cc1)N1CCOC2(CCN(C(=O)c3ccccc3F)CC2)C1           173 ng·h/mL

The record that follows has no AUC(0-inf) shown yet.
Entry under test: Cc1cnc(C(=O)N2CCC3(CC2)CN(C(=O)Nc2ccc(OC(F)(F)F)cc2)CCO3)cn1 . Its AUC(0-inf) was 111 ng·h/mL

###

Reported AUC(0-inf) values are given for each entry in this list.
Assay overview: AUC (0 to infinity) in rat at 1 mg/kg, po
Assay type: ADME, organism-based
Design: time infinity, dose 1 mg/kg, route oral
Measurement parameters: plasma
Answer in ng·h/mL, number only, no unit symbol.

The following compounds have reported results that may help.
> print(dat)
                            molecule.smiles  quantity.unit  recorded.measurement
1  O=C(Nc1ccc(OC(F)(F)F)cc1)N1CCOC2(CCN(C(=O)c3ccccc3F)CC2)C1        ng·h/mL                   306
2  Cc1cnc(C(=O)N2CCC3(CC2)CN(C(=O)Nc2ccc(OC(F)(F)F)cc2)CCO3)cn1        ng·h/mL                  61.3

Entry under test: Cc1cc(C(=O)N2CCC3(CC2)CN(C(=O)Nc2ccc(OC(F)(F)F)cc2)CCO3)no1 . Its AUC(0-inf) was 123

###

Target of assay: Bifunctional epoxide hydrolase 2 (Homo sapiens)
Sequence (P34913 whole entry): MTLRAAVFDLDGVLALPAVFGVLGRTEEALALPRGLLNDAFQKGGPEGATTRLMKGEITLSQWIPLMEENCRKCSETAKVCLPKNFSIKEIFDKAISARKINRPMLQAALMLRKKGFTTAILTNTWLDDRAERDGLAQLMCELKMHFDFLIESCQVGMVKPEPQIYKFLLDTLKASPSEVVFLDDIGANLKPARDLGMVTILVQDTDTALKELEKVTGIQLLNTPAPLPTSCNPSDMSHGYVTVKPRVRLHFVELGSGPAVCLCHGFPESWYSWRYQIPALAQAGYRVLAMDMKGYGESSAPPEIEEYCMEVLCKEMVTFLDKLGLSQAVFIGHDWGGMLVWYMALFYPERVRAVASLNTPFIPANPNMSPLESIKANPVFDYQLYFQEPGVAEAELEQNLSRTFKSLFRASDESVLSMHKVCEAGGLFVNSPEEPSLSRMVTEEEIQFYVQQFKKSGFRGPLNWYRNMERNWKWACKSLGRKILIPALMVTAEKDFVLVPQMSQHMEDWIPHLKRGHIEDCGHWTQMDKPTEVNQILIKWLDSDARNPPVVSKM
Assay overview: Inhibition of human recombinant sEH expressed in baculovirus infected insect Sf9 cells using cyano(6-methoxynaphthalen-2-yl)methyl trans-[(3-phenyloxiran-2-yl)methyl] carbonate as substrate preincubated for 30 mins followed by substrate addition measured after 20 to 45 mins by fluorescence assay
Reported endpoint: IC50 (nM)
Answer in nM, number only, no unit symbol.

> print(dat)
                            molecule.smiles  reported.endpoint  quantity.unit  recorded.measurement
1  O=C(Nc1ccc(C(F)(F)F)cc1)N1CCOC2(CCN(C(=O)c3ccccc3)CC2)C1               IC50             nM                   3.2

Entry under test: O=C(Nc1ccc(OC(F)(F)F)cc1)N1CCOC2(CCN(C(=O)c3c(F)cccc3F)CC2)C1 . Its IC50 was 0.7

Entry under test: O=C(Nc1ccc(OC(F)(F)F)cc1)N1CCOC2(CCN(C(=O)c3cc(Cl)ccn3)CC2)C1 . Its IC50 was 0.6

Entry under test: CC(C)(C)C(=O)N1CCC2(CC1)CN(C(=O)Nc1ccc(C(F)(F)F)cc1)CCO2 . Its IC50 was 2.9

Entry under test: O=C(Nc1ccc(OC(F)(F)F)cc1)N1CCOC2(CCN(C(=O)C3CCCCC3)CC2)C1 . Its IC50 was 0.6
